system: human melanocortin 4 receptor (human), P32245
Sequence (P32245 whole entry): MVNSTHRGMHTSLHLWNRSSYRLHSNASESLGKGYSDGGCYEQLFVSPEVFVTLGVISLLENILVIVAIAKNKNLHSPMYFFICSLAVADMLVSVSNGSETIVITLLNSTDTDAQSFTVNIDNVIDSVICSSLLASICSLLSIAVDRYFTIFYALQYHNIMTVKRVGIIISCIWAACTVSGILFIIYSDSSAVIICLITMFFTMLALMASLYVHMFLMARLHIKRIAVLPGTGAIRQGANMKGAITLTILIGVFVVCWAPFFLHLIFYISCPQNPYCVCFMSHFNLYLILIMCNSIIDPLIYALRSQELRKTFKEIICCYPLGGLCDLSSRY
assay-procedure: cell-based or functional assay
result-type: MC4R cAMP EC50 (nM)
Please reply with the bare figure in nM and do not write the unit itself.

Illustrative cases are given below, each with its answer.
> print(dat)
                                     binder  units.label  value.observed
1  CAHFRWCAHFRW (modifications not checked) [Chem. 56]           nM            0.44
2  CAHFRWCAAAAR (modifications not checked) [Chem. 90]           nM            0.01
3  CAHFRWCAAFAW (modifications not checked) [Chem. 11]           nM            0.03
4  CAHFRWCAYFKW (modifications not checked) [Chem. 80]           nM            0.15
5  CAHFRWCAAAAR (modifications not checked) [Chem. 89]           nM            0.02

Return reported MC4R cAMP EC50; argument: CAHFRWCAAAAW (modifications not checked) [Chem. 88] 0.02

Any idea what MC4R cAMP EC50 was measured for CAHFRWCAKKKR (modifications not checked) [Chem. 59] ? 0.004

MC4R cAMP EC50 for CAHFRWCAHFRW (modifications not checked) [Chem. 8] ? 0.02

Can you share its MC4R cAMP EC50? I mean this binder: CAHFRWCAEEAW (modifications not checked) [Chem. 102] 0.49

Form field: reported MC4R cAMP EC50 of CAHFRWCAKKKR (modifications not checked) [Chem. 85] 0.01
